# target entity: K18 Tau (Homo sapiens, UniProt P10636)
# Construct: K18 Tau was first expressed, collected, and purified; His tag (cleaved yes); made in house
# Sequence (P10636 561-685 limits assumed): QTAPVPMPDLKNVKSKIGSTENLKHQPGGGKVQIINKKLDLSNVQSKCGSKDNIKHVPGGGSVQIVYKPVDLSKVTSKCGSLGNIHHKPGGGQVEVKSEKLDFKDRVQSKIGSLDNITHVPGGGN
# protocol notes: Tau Kinetics Thioflavin T plate reader assay
# Format: biochemical
# test settings: 1 μM PLP/Pep; change in amplitude relative to control Tau
Provide the reported % amp change of each item.
All answers are understood in %, so give the number only.

Param item = VQPINK [P12] ; retrieve measured % amp change.
50

Param item = DRVQIVYKRR [P7] ; retrieve measured % amp change.
11

Param item = VQIINKRR [P4] ; retrieve measured % amp change.
46

Param item = TP7: PLP generated from peptide monomers characterized by SEQ ID: 2 (DRVQIVYKRR) ; retrieve measured % amp change.
11

Param item = TP4: PLP generated from peptide monomers characterized by SEQ ID: 4 (VQIINKRR) ; retrieve measured % amp change.
44

Param item = TP12: PLP generated from peptide monomers characterized by SEQ ID: 10 (VQPINK) ; retrieve measured % amp change.
−69

###

# target entity: K18 Tau (Homo sapiens)
# Construct: K18 Tau was first expressed, collected, and purified; His tag (cleaved yes); made in house
# protocol notes: Tau Kinetics Thioflavin T plate reader assay
# Format: biochemical
# test settings: 10 μM PLP/Pep; K18 Tau 10 μM, heparin, thioflavin T, PBS; 15 hr
assay endpoint: PLP or Pep 15 hr (average amplitude)
Write no unit; give the number alone.

Param item = VQIINKRR [P4] ; retrieve measured PLP or Pep 15 hr (average amplitude).
497

Param item = VQPINK [P12] ; retrieve measured PLP or Pep 15 hr (average amplitude).
413

Param item = TP12: PLP generated from peptide monomers characterized by SEQ ID: 10 (VQPINK) ; retrieve measured PLP or Pep 15 hr (average amplitude).
37

Param item = DRVQIVYKRR [P7] ; retrieve measured PLP or Pep 15 hr (average amplitude).
448

###

# target entity: K18 Tau (Homo sapiens, UniProt P10636)
# Construct: K18 Tau was first expressed, collected, and purified; His tag (cleaved yes); made in house
# protocol notes: Tau Kinetics Thioflavin T plate reader assay
# Format: biochemical
# test settings: 1 μM PLP/Pep; K18 Tau 10 μM, heparin, thioflavin T, PBS; 15 hr
Please use true (1) whenever PLP or Pep 15 hr (average amplitude) is not below 600, and false (0) whenever it is.

Record TP4: PLP generated from peptide monomers characterized by SEQ ID: 4 (VQIINKRR) ; criterion: PLP or Pep 15 hr (average amplitude) no lower than 600. Met?
true (1)

Record VQPINK [P12] ; criterion: PLP or Pep 15 hr (average amplitude) no lower than 600. Met?
false (0)

Record TP7: PLP generated from peptide monomers characterized by SEQ ID: 2 (DRVQIVYKRR) ; criterion: PLP or Pep 15 hr (average amplitude) no lower than 600. Met?
true (1)

Record VQIINKRR [P4] ; criterion: PLP or Pep 15 hr (average amplitude) no lower than 600. Met?
false (0)

Record DRVQIVYKRR [P7] ; criterion: PLP or Pep 15 hr (average amplitude) no lower than 600. Met?
false (0)

Record TP12: PLP generated from peptide monomers characterized by SEQ ID: 10 (VQPINK) ; criterion: PLP or Pep 15 hr (average amplitude) no lower than 600. Met?
false (0)
